- TARGET: Sodium- and chloride-dependent GABA transporter 1 (Mus musculus) (UniProt P31648)
- MEASUREMENT NOTES: Inhibition of [2H10]NO 711 binding to mouse GAT1 expressed in HEK293 cell membranes assessed as remaining NO711 binding at 100 uM after 40 mins by LC-ESI-MS-MS analysis relative to control
VALUE TYPE: Activity (%)

Give Activity for the following compound: COc1ccc(C(OCCN2CCC[C@H](C(=O)O)C2)(c2ccc(OC)cc2)c2ccc(OC)cc2C)cc1
59

State its Activity for this compound: C=C=C(CN1CCCC(C(=O)O)C1)C(c1ccc(OC)cc1)(c1ccc(OC)cc1)c1ccc(OC)cc1 (racemic)
57

Give the measured Activity for COc1ccc(C(O)(C#CCN2CCCC(C(=O)O)C2)c2ccc(OC)cc2)cc1 (racemic)
59

Please supply the value of reported Activity for the item COc1ccc(C(C#CCN2CCCC(C(=O)O)C2)(c2ccc(OC)cc2)c2nccn2C)cc1 (racemic)
83

Tell me measured Activity for C=C=C(CN1CCCC(C(=O)O)C1)C(c1ccccc1)(c1ccccc1)c1ccccc1 (racemic) please.
70
